# TEST_DESCRIPTION: Maximum tolerance dose in mice (Experiment 3)
# Parameters: species or system male mice
# TEST_CONTEXT: mouse, in vivo, ip
MEASURED_PROPERTY: MTD at 72 h

>>> df
                                   compound  measured_property  measured_value
0  COc1cc(NC(C)=O)ccc1OCCCN1CCN(c2cccc(F)c2)CC1 [Example 5]        MTD at 72 h     > 300 mg/kg
1  COc1cc(NC(C)=O)ccc1OCCCN1CCN(c2ccccc2F)CC1 [Example 7]        MTD at 72 h     > 300 mg/kg
